Where do the numbers come from? From FireProtDB (doi:10.1021/bi00146a008).

Quick reference: Tm of the listed items.
B1: Lysozyme C, P61626 (parent)
chain: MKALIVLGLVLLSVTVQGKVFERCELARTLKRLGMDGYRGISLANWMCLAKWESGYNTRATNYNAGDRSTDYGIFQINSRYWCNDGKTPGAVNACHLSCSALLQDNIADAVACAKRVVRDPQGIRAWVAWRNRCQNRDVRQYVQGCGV

# Variants of: B1
# Test Parameters: Homo sapiens; pH 2.8; Thermal; DSC; glycine-HCl 50 mM; reversible: yes; structure 1LZ1; whole UniProt chain shown
Endpoint: Tm (°C)

{"Variant Name": "P89G P121G", "Endpoint": "Tm", "Readout Number": 64.3}
{"Variant Name": "P89G", "Endpoint": "Tm", "Readout Number": 64.1}
{"Variant Name": "P121G", "Endpoint": "Tm", "Readout Number": 68.7}
{"Variant Name": "A65P", "Endpoint": "Tm", "Readout Number": 69.1}
{"Variant Name": "V128P", "Endpoint": "Tm", "Readout Number": 70}
{"Variant Name": "D109P", "Endpoint": "Tm", "Readout Number": 67.7}
